Entry source: patent US20240109974A1

// values below are reported pKd
Target Entity: T1, Human TNFR2-His (Sino 10417-H08H) (human, UniProt P20333 23-257)
T1 construct: Bought protein; also called recombinant human TNFR2 protein; not shown: His tag
T1 sequence (looked up): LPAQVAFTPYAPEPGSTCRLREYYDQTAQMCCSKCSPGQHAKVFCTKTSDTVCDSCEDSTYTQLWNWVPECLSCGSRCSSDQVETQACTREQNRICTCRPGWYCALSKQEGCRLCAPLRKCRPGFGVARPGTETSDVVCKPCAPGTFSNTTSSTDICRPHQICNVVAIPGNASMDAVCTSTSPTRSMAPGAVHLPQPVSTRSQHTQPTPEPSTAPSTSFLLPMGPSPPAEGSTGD
Protocol Description: SPR (Biacore T200), antibody captured on Protein A chip
Reminder that pKd is minus the log10 of a molar concentration.

Tell me pKd reported for 001-Hu5 (antibody, V domains shown, Humanized form of #001; also called VH1 + VL4) VH: EVQLVESGGGLVQPGGSLRLSCAASGFAFSTYDLSWVRQAPGKGLEWVAYINNGGISTYYSDTVKGRFTISRDNAKNTLYLQMNSLRAEDTAVYYCVRGPFYGSANYFDYWGQGTLVTVSS VL: DIQMTQSPSSLSASVGDRVTITCRTSESIYSNLPWYQQKPGKSPKLLVYDATKLAEGVPSRFSGSGSGTDYTLTISSLQPEDFATYYCQHFWVTPWTFGQGTKVEIK 9.38

Here is another binder to look at.
Tell me pKd reported for 224-Hu1 (antibody, V domains shown, Humanized form of #224; also called VH8 + VL6) VH: QVQLVQSGAEVKKPGASVKVSCKASGFNNKDIYMHWVRQAPGQGLEWIGRIDPATGNTKHDPKFQDRVTMTSDTSTNTVYMELSSLRSEDTAVYYCARSPYGDFGAMDYWGQGTLVTVSS VL: DIQMTQSPSSLSASVGDRVTITCTASSSVSSNYLHWYQQKPGKAPKLWIYSTSNLPSGVPSRFSGSGSGTDFTLTISSLQPEDFATYYCHQYHRSPWTFGQGTKVEIK 8.18
